- System: NCI-H226 lung
- ASSAY: NCI tumour cell line growth inhibition, 48 h
For each record, write down the corresponding log10 TGI.
Could you please treat all values as log10 of TGI in µM?

State log10 TGI (NCI-H226 lung) of Cc1cnc2[nH]c(-c3cccc(F)c3)cc(=O)c2c1 .
0.65

State log10 TGI (NCI-H226 lung) of COc1ccc(-c2cc(-c3ccc(Cl)cc3)c(C#N)c(=O)n2CCCCC(=O)Nc2ccccc2N)cc1 .
1.85

State log10 TGI (NCI-H226 lung) of N#CC(C#N)SCc1ccccc1 .
1.88

State log10 TGI (NCI-H226 lung) of NCCN(CCN(C(=O)Nc1ccccc1)c1ccccc1)C(=O)Nc1ccccc1 .
1.99

State log10 TGI (NCI-H226 lung) of COc1cc2c3cc1Oc1c(OC)c(OC)cc4c1C(Cc1ccc(O)c(c1)Oc1ccc(cc1)CC3N(C)CC2)CN(C)C4 (stereo not given) .
1.84

State log10 TGI (NCI-H226 lung) of COc1cc(/C=C2\CN(C)CC3=C2Nc2nc(SC)[nH]c(=O)c2C3c2cc(OC)c(OC)c(OC)c2)cc(OC)c1OC (stereo not given) .
1.35

State log10 TGI (NCI-H226 lung) of C/C(=N\O)c1ccc(Nc2cc(-n3nnc4ccccc43)nc3ccccc23)cc1 .
1.48

State log10 TGI (NCI-H226 lung) of O=P1(C(O)/C=C/c2ccccc2)N(Cc2ccccc2)[C@@H]2CCCC[C@H]2N1Cc1ccccc1 (stereo not given in full) .
1.24

State log10 TGI (NCI-H226 lung) of Cc1cc([N+](=O)[O-])c(C)c2c1[nH]c1ccc(/C(CCC3CCCC3)=N\N)cc12 .
1.62

State log10 TGI (NCI-H226 lung) of O=[N+]([O-])c1ccc(N=Nc2c(O)[nH]c3ccc([N+](=O)[O-])cc23)cc1 .
0.85

State log10 TGI (NCI-H226 lung) of N=C(N)c1ccc(-c2ccc(-c3ccc(Cl)cc3Cl)o2)cc1 .
0.63

State log10 TGI (NCI-H226 lung) of O=[N+]([O-])/C(Cl)=C(/C(Cl)=C(Cl)Cl)N1CCCCC1 .
1.53

State log10 TGI (NCI-H226 lung) of COc1cccc(N2C(=O)CS(=O)(=O)C2c2cccc(Oc3ccccc3)c2)c1 (stereo not given) .
1.88

State log10 TGI (NCI-H226 lung) of CC(CO)[C@H]1OC(=O)C=C2[C@@]13O[C@@H]3[C@H]1OC(=O)[C@@]3(C)[C@H]4O[C@H]4C[C@@]2(C)[C@@H]13 (stereo not given in full) .
0.74

State log10 TGI (NCI-H226 lung) of CCCCCCc1cc2cc(-c3csc(-c4ccc(OC)cc4)n3)c(=O)oc2cc1O .
1.49

State log10 TGI (NCI-H226 lung) of CCN(c1ccc(CO)c(Cl)c1)C(C)c1ccc(F)cc1 (stereo not given) .
0.36

State log10 TGI (NCI-H226 lung) of O=C(c1ccccc1)c1c(CC(O)c2cccnc2)n(C(=O)c2ccccc2)c2ccccc12 (stereo not given) .
1.39

State log10 TGI (NCI-H226 lung) of CNC(=S)NNc1ncnc2c1c(-c1ccc(Cl)cc1)cn2-c1ccc(C)cc1 .
1.76

State log10 TGI (NCI-H226 lung) of O=C1/C(=C/c2ccc(Cl)cc2)CCCc2ccc(F)cc21 .
1.62

Cited source: PubChem BioAssay (NCI)
